I'd appreciate it if you could supply growth values for the items below.
- Test system: UACC-257 melanoma
- Test Description: NCI-60 one-dose screen, 48 h (100 = growth as untreated, 0 = no growth, -100 = all killed)
- Measurement Conditions: 10 µM unless noted
About 83,000 compounds went through this panel and 20% of them were active in at least one assay; those are over-represented in the sample as a whole. The source made the active and inactive calls. Rule for the calls: active = growth percent below 10; inactive = the rest.

molecule=O=C(/C=C/c1ccco1)c1ccc(Nc2ccnc3cc(Cl)ccc23)cc1 endpoint_label=growth reported_result="97.8% (inactive)"
molecule=CN(C)c1ccc(Cc2cc(-c3ccccc3)nn(C/C(=N/O)c3ccccc3)c2=O)cc1 endpoint_label=growth reported_result="62.8% (inactive)"
molecule="Clc1nc(N2CCC[N+]3(CC2)CC[N+]2(CCCNCC2)CC3)nc(N2CCC[N+]3(CC2)CC[N+]2(CCCNCC2)CC3)n1 (stereo not drawn)" endpoint_label=growth reported_result="81.3% (inactive)"
molecule=Cc1nc2cccc(NCc3ccc(C(=O)NO)cc3)c2c(=O)n1-c1ccccc1 endpoint_label=growth reported_result="53.4% (inactive)"

Give growth for each listed item.
1. O=C1c2c(c3c4cccnc4[nH]c3c3ccc4ccccc4c23)C(=O)N1O
2. CC1(C)CC(=O)C2=C(C1)OC(C(=O)c1ccccc1)C2c1cccc(Oc2ccccc2)c1 (stereo not drawn)
3. Oc1ccc(C2OCCO2)c2cccnc12
4. C=C1C(=O)O[C@H]2[C@H]1CC/C(CNC(=O)/C=C/c1cc(OC)c(OC)c(OC)c1)=C\CC[C@@]1(C)O[C@@H]21
5. CC(=O)O[C@H]1CC[C@@]2(C)C(=CC[C@@H]3[C@@H]2CC[C@]2(C)C(Cl)=C(c4nc5ccc(Cl)cn5c4NC(C)(C)C)C[C@@H]32)C1
6. C=C(CNCCO)[C@@H]1CC[C@]2(CO)CC[C@]3(C)[C@H](CC[C@@H]4[C@@]5(C)CCC(NCCO)C(C)(C)[C@@H]5CC[C@]43C)[C@@H]12 (stereo partly drawn)
7. O=C(Nc1ccc(Cl)cc1)C1=NCCCCN1
8. Cc1ccc(-c2nn(CC(=O)N3CCOCC3)c(N)c2C#N)cc1

1. 76.4% (inactive)
2. 45.5% (inactive)
3. 79.2% (inactive)
4. -26.1% (active)
5. 98.9% (inactive)
6. 77.9% (inactive)
7. 99.7% (inactive)
8. 107% (inactive)

Value sought for every listed molecule: growth.
1. O=C(O)CCCN1C(=O)CSC1=S
2. N=C(N)c1ccc(-c2ccc(-c3ccccc3)s2)nc1
3. Clc1ccc(C2=Nn3c(nnc3-c3cc(Cl)cc(Cl)c3Cl)SC2)cc1
4. CN(C)CCOc1ccc(/C(=C(/CCCCCCCCCC[P+](c2ccccc2)(c2ccccc2)c2ccccc2)c2ccccc2)c2ccccc2)cc1
5. O=C(/C=C/c1ccc(Cl)cc1)c1ccc(Nc2ccnc3cc(Cl)ccc23)cc1
6. O=C(NCCN1CCOCC1)c1cncnc1Nc1ccc2c(ccn2Cc2ccccn2)c1
7. CC(C)CCc1nc2ccc(NCc3ccc(OCCN4CCC(C)CC4)cc3)cc2[nH]1

95.9% (inactive)
96% (inactive)
71.5% (inactive)
-77.4% (active)
93.4% (inactive)
102% (inactive)
96.3% (inactive)

###

- Tested on: A549/ATCC NSCLC
- Test Description: NCI-60 one-dose screen, 48 h
- Measurement Conditions: 10 µM unless noted
This is part of a sample that, as a whole, favours compounds with a hit. Of some 83,000 tested, about 20% had one in any assay. Activity calls are given as the source filed them. How the source made its calls: active means growth percent below 10; inactive means the rest.
# valid calls are true (1) (active), false (0) (inactive); nothing else

Consider the following illustrative entries.
compound="CCCCC#Cc1c(I)n(C2OC(CO[Si](C)(C)C(C)(C)C)C3OC(C)(C)OC32)c(=O)[nH]c1=O (centres undefined)" label="false (0)"
compound=COc1cc(/C=N/NC(=O)c2ccc3nc(-c4ccc(Cl)cc4)[nH]c3c2)cc(OC)c1OC label="false (0)"
compound=COc1cc(/C=C2\C(=O)N(CCOc3cc(O)c4c(=O)cc(-c5ccccc5)oc4c3)c3ccccc32)cc(OC)c1O label="false (0)"
compound=COCCn1cc(-c2nc(-c3cc4cccnc4n3C)cs2)c2cc(OC)ccc21 label="false (0)"
compound=O=C1NCCN1/N=C/c1c(Cl)n(Cc2ccc(Cl)cc2)c2ccccc12 label="false (0)"
compound=CCN(CC)CCN1C(=O)c2c(c(C)c3c(oc4cc(OC)ccc43)c2C)C1=O label="false (0)"
compound=Cn1ccnc1C(=O)/C=C/c1ccc(CC(=O)Nc2cc(F)c(F)c(F)c2)cc1 label="false (0)"
compound=Cn1cc(-c2csc(-c3cn(C)c4ccc(F)cc34)n2)c2cnccc21 label="true (1)"

Look up the recorded call for CN1CC(c2ccccc2)C(C(=O)c2ccc(Br)cc2)C12C(=O)Nc1ccccc12 (centres undefined) in this test.
false (0)

How was `O=C(CNc1ncco1)Nc1ccc(S(=O)(=O)c2ccc(NC(=O)CNc3ncco3)cc2)cc1` classified in this test?
true (1)

Given `COc1cccc(-c2nn(-c3ccccc3)cc2-c2ccnc(-c3cccnc3)c2)c1` , state the outcome it received in this test.
false (0)

Dear colleague, could you share the recorded outcome for `CNc1nc2ncc(-c3c(C)noc3C)cc2n1Cc1ccccc1` when you have a moment?
false (0)
